The entries below are paired with their reported Pre-emergence action against POLCO in %.
# Tested on: Polygonum convolvulus (POLCO)
# assay text: Pre-emergence herbicidal action against POLCO
# Format: in vivo
# condition: dosage 80 g/ha

>>> print(df.to_string())
                                   compound                        reported_endpoint  result
0  O=C(O)COc1nn(-c2nc(F)ccc2F)c(-c2cncc(F)c2)c1C1CC1 [Example I-148]  Pre-emergence action against POLCO in %     80%
1  COC(=O)[C@@H](C)Oc1nn(-c2ccccn2)c(-c2cncc(F)c2)c1Cl [Example I-189]  Pre-emergence action against POLCO in %    100%
2  COC(=O)[C@@H](C)Oc1nn(-c2ncccc2F)c(-c2cccnc2)c1Br [Example I-03]  Pre-emergence action against POLCO in %     90%

Next compound, Pre-emergence action against POLCO in % to be filled in.
Which value of Pre-emergence action against POLCO in % has been reported for COC(=O)CNC(=O)[C@@H](C)Oc1nn(-c2ccccn2)c(-c2cncc(F)c2)c1Br [Example I-187] in the records?
90%
